Test system: Italian ryegrass
EXPERIMENT_NOTES: Test E Italian ryegrass
Format: in vivo, Lolium multiflorum
STATED_CONDITIONS: Preemergence; Rate 500 g/ha; 0 to 100 scale where 0 is no effect and 100 is complete control
MEASUREMENT_TYPE: Plant response rating, I. Ryegrass
A bare number is all that is needed in reply.

Entry CC(C)N(C(=O)n1oc(=O)n(C(C)C)c1=O)c1ccc(F)cc1 has what Plant response rating, I. Ryegrass?
100

Another: CCc1cccc(C)c1-n1c(=O)on(C(=O)N(c2ccc(F)cc2)C(C)C)c1=O
60

Another: Cc1ccccc1-n1c(=O)on(C(=O)N(c2cc(F)cc(F)c2)C(C)C)c1=O
30

More entries:
Entry CC(C)N(C(=O)n1oc(=O)n(C2CCCCC2)c1=O)c1ccc(F)cc1F has what Plant response rating, I. Ryegrass?
50
